Observed GI50 values for U251 CNS are listed in what follows.

Exercise: # GI50 lookup, item OCCNc1nc(NCCO)nc(Nc2ccc(C3=NN(c4cc(Cl)cc(Cl)c4)C(c4ccc(Cl)cc4)C3)cc2)n1 (configuration not stated)
Solution: 1.51 µM

Exercise: Lookup Cc1sc2ncnc(Sc3nc4ccccc4[nH]3)c2c1C
Solution: 18.8 µM

Exercise: Lookup CCN(CC)CCC(=O)Nc1cccc2c1C(=O)c1c(c(O)c3ccccc3c1O)C2=O
Solution: 10.2 µM

Exercise: Lookup CC(C)(C)Cn1c(N)nc2ccc(-c3[nH]c(C(C)(C)C)nc3-c3ccc(F)cc3)nc21
Solution: 10.8 µM

Exercise: Lookup N#Cc1nc(-c2cccc(Br)c2)cc(-c2ccc(Nc3nc(N4CCCCC4)nc(N4CCCCC4)n3)cc2)c1N
Solution: 1.72 µM

Exercise: Lookup FC(F)(F)c1ccc2c(c1)N(CCCN1CCN(C3CC3)CC1)c1ccccc1S2
Solution: 4.94 µM

Exercise: Lookup O=C(CNC(=O)c1cccc2ccccc12)Nc1ccccc1Oc1cccc(O)c1
Solution: 8.41 µM

###

# Tested on: KM12 colon
# Assay: NCI tumour cell line growth inhibition, 48 h
Consider the following compounds; for each one, report its TGI.

Exercise: # TGI lookup, item CC(=O)Nc1c(C)cc(OCC(=O)O)cc1C
Solution: > 100 µM

Exercise: Lookup Oc1cn(-c2ccc(Cl)cc2)nc1-c1nnc(Nc2ccccc2)o1
Solution: 37.2 µM

Exercise: Lookup NC(=S)N/N=C/c1cc(CN2CCOCC2)c(N)cn1
Solution: > 100 µM

Exercise: Lookup Cc1ccc(-c2c(C#N)c(-c3ccc(N(C)C)cc3)c(C#N)c(=O)n2NS(=O)(=O)c2ccccc2)cc1
Solution: > 100 µM

Exercise: Lookup Cc1c(C(=O)/C=C/c2ccc(O)cc2)nnn1-c1ccnc2c(C(F)(F)F)cccc12
Solution: > 100 µM

###

# System: HCC-2998 colon
# Assay: NCI tumour cell line growth inhibition, 48 h
Consider the following compounds; for each one, report its TGI.

Exercise: # TGI lookup, item O=C(CC(=O)Nc1ccc(Cl)cc1)NNCC(=O)Nc1nc(-c2ccccc2)cs1
Solution: > 100 µM

Exercise: Lookup C#Cc1cccc(NC(=O)Nc2ccc(NC(=O)CCl)cc2)c1
Solution: > 82.5 µM

Exercise: Lookup CCc1ccccc1NC(=O)CCc1nc(=S)[nH][nH]1
Solution: > 100 µM

Exercise: Lookup CCOC(=O)[C@H]1C[C@@H](C(=O)c2ccccc2)N2N=C(c3ccc(Br)cc3)C=C[C@H]12
Solution: > 100 µM

Exercise: Lookup Cc1cccc(C(C)(C)C)c1NC(=O)CC1C(=O)Nc2ccccc2S1=O (centres undefined)
Solution: > 100 µM

Exercise: Lookup O=C(CNC(=O)c1cccc2ccccc12)Nc1ccccc1Oc1cccc(O)c1
Solution: > 25 µM

Exercise: Lookup CCCCCCn1c(-c2ccc(C(=O)O/N=C(\N)c3ccc(OC)cc3)cc2)nc(-c2ccccc2)c1-c1ccccc1
Solution: 4.81 µM

Exercise: Lookup OCCNc1nc(NCCO)nc(Nc2ccc(C3=NN(c4cc(Cl)cc(Cl)c4)C(c4ccc(Cl)cc4)C3)cc2)n1 (centres undefined)
Solution: 3.52 µM

Exercise: Lookup FC(F)(F)c1ccc2c(c1)N(CCCN1CCN(C3CC3)CC1)c1ccccc1S2
Solution: 27.5 µM

Exercise: Lookup Clc1ccc(C2=Nc3ccccc3SC(c3ccc(Cl)c(Cl)c3)C2)c(Cl)c1 (centres undefined)
Solution: 27.8 µM

Exercise: Lookup C1=CCN(c2ccccc2)CC1
Solution: > 100 µM

Exercise: Lookup CN1CC=C(OP(=O)(NCc2ccccc2)N(CCCl)CCCl)CC1 (centres undefined)
Solution: > 100 µM

Exercise: Lookup O=C1CCC(c2nc3ccccc3o2)C(=O)N1 (centres undefined)
Solution: > 100 µM

Exercise: Lookup CC1=NC(=Cc2ccc(Cl)cc2)C(=O)N1n1c(-c2ccccc2)nc2ccccc2c1=O
Solution: > 100 µM

Exercise: Lookup S=C(Nc1ccccc1)c1ccccn1
Solution: > 100 µM

Exercise: Lookup C1CSCC2(COC2)CS1
Solution: > 100 µM

Exercise: Lookup COc1ccc(/C=C/C(=O)c2ccc(Nc3ncnc4ccccc34)cc2)cc1OC
Solution: 11.8 µM

Exercise: Lookup O=C(/C=C/c1ccc(O)c(O)c1)NC(CO)C(=O)O (centres undefined)
Solution: > 100 µM

Exercise: Lookup CC[C@@]1(O)C(=O)OCc2c1c(Cl)c1n(c2=O)Cc2cc3ccccc3nc2-1
Solution: 80.6 µM

###

Consider the following molecules; for each one, report its GI50.
# Test system: KM12 colon
# Assay: NCI tumour cell line growth inhibition, 48 h

Exercise: # GI50 lookup, item COc1cc2c(cc1OCCCCCOc1cc(-c3ccc(F)cc3)nc(C)n1)N=C[C@@H]1CCCN1C2=O
Solution: > 48.3 µM

Exercise: Lookup N#Cc1nc(-c2cccc(Br)c2)cc(-c2ccc(Nc3nc(N4CCCCC4)nc(N4CCCCC4)n3)cc2)c1N
Solution: 1.91 µM

Exercise: Lookup O=C(Oc1ccccc1)c1cc(O)c(O)c(O)c1
Solution: 11.5 µM

###

# Tested on: SF-295 CNS
# Assay: NCI tumour cell line growth inhibition, 48 h
Consider the following molecules; for each one, report its GI50.

Exercise: Form entry - test system: SF-295 CNS; read-out: GI50; molecule: C[C@]12CC[C@H]3[C@@H](CC=C4C[C@@H](O)CC[C@@]43C)[C@@H]1C/C(=C\c1cccc(OCCN3CCOCC3)c1)[C@@H]2O
Solution: 89.4 µM

Exercise: Lookup CCCCCCn1c(-c2ccc(C(=O)O/N=C(\N)c3ccc(OC)cc3)cc2)nc(-c2ccccc2)c1-c1ccccc1
Solution: 1.61 µM

Exercise: Lookup Cc1sc2ncnc(Sc3nc4ccccc4[nH]3)c2c1C
Solution: 55.8 µM

Exercise: Lookup CC(=O)OCC(=O)[C@@]1(O)[C@H](C)C[C@H]2[C@@H]3C=C(C)C4=Cc5c(cnn5-c5ccc(F)cc5)C[C@]4(C)[C@H]3[C@@H](O)C[C@@]21C
Solution: 0.982 µM

Exercise: Lookup O=[N+]([O-])c1cccc(-c2nc3sccn3c2-c2ccnc(NCCCNS(=O)(=O)c3ccc(F)cc3)n2)c1
Solution: 2.62 µM

Exercise: Lookup CCCCCCN1C(=O)/C(=c2\sc3n(c2=O)C2C(NN=3)N(CC)C(=O)N2CC)c2ccccc21 (configuration not stated)
Solution: 1.45 µM

Exercise: Lookup OCCNc1nc(NCCO)nc(Nc2ccc(C3=NN(c4cc(Cl)cc(Cl)c4)C(c4ccc(Cl)cc4)C3)cc2)n1 (configuration not stated)
Solution: 1.47 µM

###

# Tested on: OVCAR-5 ovarian
# Assay: NCI tumour cell line growth inhibition, 48 h
Readout Label: TGI

Exercise: Form entry - test system: OVCAR-5 ovarian; read-out: TGI; compound: N#C/C(=C\c1ccc(Cl)cc1)c1nc2ccccc2c(=O)[nH]1
Solution: > 100 µM

Exercise: Lookup O=C(O)Cc1cc(=O)oc2cc(O)c(Cl)cc12
Solution: > 100 µM

Exercise: Lookup COc1ccccc1NC(=O)CC(=O)n1nc(C)c(N=Nc2ccccc2F)c1C
Solution: > 100 µM

Exercise: Lookup Cc1cc2c(cn1)C(=O)OCC2
Solution: > 100 µM

Exercise: Lookup CC1C(=O)N=C2C(=CN(Cc3ccccc3)c3ccccc32)C(=O)N1C (configuration not stated)
Solution: > 100 µM

Exercise: Lookup COc1ccc2c(OC)c3ccoc3nc2c1O
Solution: > 100 µM

Exercise: Lookup O=S(=O)(CC1=NC2C=CC=CC2N=C1)NCc1ccccc1 (configuration not stated)
Solution: > 100 µM

Exercise: Lookup C[N+](C)(C)CC1Cc2ccccc2C1=O (configuration not stated)
Solution: > 10 µM

Exercise: Lookup CC(=O)Nc1ccc(-c2nnc(SCC(=O)Nc3ccccc3Cl)o2)cc1
Solution: > 100 µM

Exercise: Lookup COc1cc2c(cc1OC)-c1c(cnn1C1OC(COC(C)=O)C(OC(C)=O)C(OC(C)=O)C1OC(C)=O)CC2 (configuration not stated)
Solution: > 100 µM

Exercise: Lookup CCN(CC)c1ccc(/C=N/NC(=O)c2ccc(Nc3ccnc(C(F)(F)F)c3)cc2)c(O)c1
Solution: 4.75 µM

Exercise: Lookup Cc1ccc2sc3cc(=O)cc(C)c-3nc2c1
Solution: > 100 µM

Exercise: Lookup NN/C(=N\S(=O)(=O)c1cc(Cl)c(Oc2ccc([N+](=O)[O-])cc2Cl)c(Cl)c1)Nc1ccc(Cl)cc1
Solution: 55 µM

Exercise: Lookup Cc1ccc(S(=O)(=O)N/N=C2\C(=O)C3CC2C(Cl)C3Cl)cc1 (configuration not stated)
Solution: > 100 µM

Exercise: Lookup Nc1ncc2c(n1)-c1ccccc1OC2NC1CC1 (configuration not stated)
Solution: > 100 µM

Exercise: Lookup CCN(CC)CCC(=O)Nc1cccc2c1C(=O)c1c(c(O)c3ccccc3c1O)C2=O
Solution: 30 µM

Exercise: Lookup FC(F)(F)c1ccc2c(c1)N(CCCN1CCN(C3CC3)CC1)c1ccccc1S2
Solution: 27.6 µM
